Tested on: β-galactosidase in CMV-LacZ C2C12 myotubes
run-description: CMV-LacZ secondary screen in C2C12 myotubes (β-Gal stabilizing assay)
Format: cell-based, mouse
assay-conditions: 20 uM; C2C12 CMV-LacZ myotubes; fold relative to DMSO
reported-property: CMV-LACZ in Myotubes, signal relative to DMSO

Sample records with CMV-LACZ in Myotubes, signal relative to DMSO:
Recorded CMV-LACZ in Myotubes, signal relative to DMSO for CS(=O)(=O)c1ccc(Cl)c(NC(=O)CSc2nncn2-c2ccccc2)c1 [MLS001177364-01] , please?
1.053

Any idea what its CMV-LACZ in Myotubes, signal relative to DMSO is? The molecule is CC(C)c1ccc(OC(=O)c2cccc(S(=O)(=O)N3CCN(C)CC3)c2)cc1 [MLS001130011-01]
0.8367

State the recorded CMV-LACZ in Myotubes, signal relative to DMSO for this entry: CC1(C)Cc2c(c(N3CCOCC3)nc3sc(C(=O)Nc4ccccc4)c(N)c23)CO1 [MLS001075922-01]
1.0282

For each entry beneath this line, provide reported CMV-LACZ in Myotubes, signal relative to DMSO.
1. CC1CC(C)(C)NC(=S)N1CC(=O)N(C)Cc1ccccc1 (centres unmarked) [MLS000586245-01]
2. CC(Oc1ccccc1)C(=O)N1CCN(C(=O)C(C)Oc2ccccc2)CC1 (centres unmarked) [MLS001162337-01]

1: 1.2267; 2: 0.8491

* * *

System: β-galactosidase in CMV-LacZ C2C12 myoblasts
run-description: CMV-LacZ secondary screen in C2C12 myoblasts (β-Gal stabilizing assay)
Assay type: cell-based, mouse
assay-conditions: 0.5 uM; CMV-LacZ C2C12 myoblasts
For each of the molecules below, state its CMV-LACZ in Myoblasts (β-galactosidase activity relative to DMSO).

Sample records with CMV-LACZ in Myoblasts (β-galactosidase activity relative to DMSO):
GET /values?readout=CMV-LACZ in Myoblasts (β-galactosidase activity relative to DMSO)&item= O=C(CSc1nnc2c(n1)[nH]c1ccccc12)NCc1ccccc1F
0.9597

What measured CMV-LACZ in Myoblasts (β-galactosidase activity relative to DMSO) goes with O=C(O)C(Cc1ccc(O)cc1)N1C(=O)c2ccccc2C1=O (stereo not drawn) ?
1.0655

// switching to the query molecule
Query: CMV-LACZ in Myoblasts (β-galactosidase activity relative to DMSO); subject: Cc1ccc2c(c1)/C(=C/c1ccco1)C(=O)N2
0.9679

* * *

Test system: β-galactosidase in CMV-LacZ C2C12 myotubes
run-description: CMV-LacZ secondary screen in C2C12 myotubes (β-Gal stabilizing assay)
Format: cell-based, mouse
assay-conditions: 40 uM; C2C12 CMV-LacZ myotubes; fold relative to DMSO
Cut-off 1 on CMV-LACZ in Myotubes, signal relative to DMSO: below means t, at or above means f.

// known answers, use as guide
Take the compound Cc1cc(C)cc(OCC(=O)N/N=C/c2ccccn2)c1 [MLS000710669-01] and say whether its CMV-LACZ in Myotubes, signal relative to DMSO is less than 1.
f

Hello, is CMV-LACZ in Myotubes, signal relative to DMSO of the following compound strictly smaller than 1? O=C(O)c1cc(-c2ccccc2Cl)n(-c2cccc(Cl)c2)n1 [MLS001166325-01]
t

# strict comparison: is reported CMV-LACZ in Myotubes, signal relative to DMSO < 1? input = Cc1ccc(C(=O)C(C)OC(=O)CNC(=O)c2ccc(Br)o2)cc1 (centres unmarked) [MLS001160885-01]
t

New cases:
CMV-LACZ in Myotubes, signal relative to DMSO under 1? Item: O=C1CCc2cc(S(=O)(=O)Nc3ccc(C(F)(F)F)cc3)cc3c2N1CC3 [MLS001237320-01]
f

Numbers sourced from patent US9980943B2.
